pIC50: −log10 of the molar value.
Exercise: for every item that follows, state its recorded pIC50.

Q: Give the observed pIC50 of O=C(O)CCCO/N=C1/C(=C2/C(=O)Nc3ccccc32)Nc2ccccc21 for Histone deacetylase 5 (Homo sapiens, UniProt Q9UQL6).
Result: < 5.30

Q: Give the observed pIC50 of O=C(CCCO/N=C1/C(=C2/C(=O)Nc3ccccc32)Nc2ccccc21)NO for Histone deacetylase 5 (Homo sapiens, UniProt Q9UQL6).
Result: < 5.30

###

# measurementDescription: Toxicity in iv dosed BALB/c nude mouse assessed as maximum tolerated dose administered once daily for 5 consecutive days
# Assay type: organism-based
# conditionDescription: in vivo, time 5 day
measuredAttribute: MTD at 120 h

Q: Write down MTD at 120 h measured for item O=C(CCCO/N=C1/C(=C2/C(=O)Nc3ccccc32)Nc2ccccc21)NO
Result: ≤ 200 mg/kg

###

# assayedSystem: Histone deacetylase 9 (Homo sapiens)
# Sequence (Q9UKV0 whole entry): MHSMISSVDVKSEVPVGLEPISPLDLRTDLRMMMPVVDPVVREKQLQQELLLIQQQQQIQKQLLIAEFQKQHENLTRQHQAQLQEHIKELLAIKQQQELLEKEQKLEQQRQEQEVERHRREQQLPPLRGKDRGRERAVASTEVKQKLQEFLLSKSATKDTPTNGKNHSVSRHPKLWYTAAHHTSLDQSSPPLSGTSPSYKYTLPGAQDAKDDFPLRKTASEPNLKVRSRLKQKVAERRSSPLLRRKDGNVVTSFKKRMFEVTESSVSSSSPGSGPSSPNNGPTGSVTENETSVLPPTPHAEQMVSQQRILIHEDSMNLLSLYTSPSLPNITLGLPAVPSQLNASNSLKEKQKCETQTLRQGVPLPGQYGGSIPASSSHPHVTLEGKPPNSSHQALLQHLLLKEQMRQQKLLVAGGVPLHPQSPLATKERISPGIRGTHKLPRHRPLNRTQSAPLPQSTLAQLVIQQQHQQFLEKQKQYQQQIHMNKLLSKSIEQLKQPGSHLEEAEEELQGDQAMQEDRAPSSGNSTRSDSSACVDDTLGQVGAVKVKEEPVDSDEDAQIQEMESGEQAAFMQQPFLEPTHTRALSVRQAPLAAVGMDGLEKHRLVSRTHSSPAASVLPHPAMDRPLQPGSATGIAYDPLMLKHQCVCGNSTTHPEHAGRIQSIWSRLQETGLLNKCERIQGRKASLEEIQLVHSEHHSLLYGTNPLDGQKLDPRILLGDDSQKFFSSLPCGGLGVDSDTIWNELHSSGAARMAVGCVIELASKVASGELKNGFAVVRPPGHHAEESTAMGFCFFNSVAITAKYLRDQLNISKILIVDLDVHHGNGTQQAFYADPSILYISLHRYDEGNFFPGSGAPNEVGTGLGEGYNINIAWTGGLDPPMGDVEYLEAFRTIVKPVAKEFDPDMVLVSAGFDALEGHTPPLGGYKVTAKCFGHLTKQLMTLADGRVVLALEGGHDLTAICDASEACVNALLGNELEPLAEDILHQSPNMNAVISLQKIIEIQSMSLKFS
# measurementDescription: Inhibition of recombinant human HDAC9 measured after 30 mins by fluorescence microplate reader assay
measuredAttribute: IC50

Q: Write down IC50 measured for item O=C(CCCO/N=C1/C(=C2/C(=O)Nc3ccccc32)Nc2ccccc21)NO
Result: > 5 µM

Q: Write down IC50 measured for item O=C(O)CCCO/N=C1/C(=C2/C(=O)Nc3ccccc32)Nc2ccccc21
Result: > 5 µM

###

# assayedSystem: Histone deacetylase (Homo sapiens) (UniProt Q13547+O15379+Q9UBN7+Q92769+Q9UQL6+Q8WUI4+Q9BY41+Q96DB2+P56524+Q9UKV0+Q969S8)
# conditionDescription: HeLa, Nucleus, dose 1000.0 nM, time 1.0 hrs
Exercise: for every item that follows, state its recorded inhibition.
Reply with just the number (in %).

Q: Write down inhibition measured for item C#CCN1C(=O)/C(=C2\Nc3ccccc3\C2=N/OCCCC(=O)NO)c2ccccc21
Result: 23

Q: Write down inhibition measured for item Cc1cccc2c1NC(=O)/C2=C1\Nc2ccccc2\C1=N/OCCCCCCC(=O)NO
Result: 91.1

Q: Write down inhibition measured for item O=C(CCCO/N=C1/C(=C2/C(=O)Nc3ccc(Br)cc32)Nc2ccccc21)NO
Result: 9.1

Q: Write down inhibition measured for item O=C(CCCCCCO/N=C1/C(=C2/C(=O)Nc3ccccc32)Nc2ccc([N+](=O)[O-])cc21)NO
Result: 76.6

Q: Write down inhibition measured for item O=C(CCCCCO/N=C1/C(=C2/C(=O)Nc3ccccc32)Nc2ccccc21)NO
Result: 89.9

Q: Write down inhibition measured for item O=C(CCCCCO/N=C1/C(=C2/C(=O)Nc3ccc(Br)cc32)Nc2ccccc21)NO
Result: 21.4

Q: Write down inhibition measured for item O=C(CCCCO/N=C1/C(=C2/C(=O)Nc3ccccc32)Nc2ccccc21)NO
Result: 58.3

Q: Write down inhibition measured for item Cc1ccc2c(c1)NC(=C1\C(=O)Nc3ccccc31)/C2=N/OCCCCCCC(=O)NO
Result: 94.4

Q: Write down inhibition measured for item O=C(CCCCCCO/N=C1/C(=C2/C(=O)Nc3c2cccc3C(F)(F)F)Nc2ccccc21)NO
Result: 8

Q: Write down inhibition measured for item O=C(CCCCCCO/N=C1/C(=C2/C(=O)Nc3ccc(F)cc32)Nc2ccccc21)NO
Result: 82.7

Q: Write down inhibition measured for item COc1ccc2c(c1)NC(=O)/C2=C1\Nc2ccccc2\C1=N/OCCCCCCC(=O)NO
Result: 44.7

Q: Write down inhibition measured for item O=C(CCCCCCO/N=C1/C(=C2/C(=O)Nc3ccc(Br)cc32)Nc2ccccc21)NO
Result: 87.5

Q: Write down inhibition measured for item O=C(CCCCCCO/N=C1/C(=C2/C(=O)Nc3ccc(Cl)cc32)Nc2ccccc21)NO
Result: 82.6

Q: Write down inhibition measured for item O=C(CCCCCCO/N=C1/C(=C2/C(=O)Nc3ccccc32)Nc2ccc(Cl)cc21)NO
Result: 90.8

Q: Write down inhibition measured for item O=C(CO/N=C1/C(=C2/C(=O)Nc3ccc(Br)cc32)Nc2ccccc21)NO
Result: 17.5

Q: Write down inhibition measured for item O=C(CCCCO/N=C1/C(=C2/C(=O)Nc3ccc(Br)cc32)Nc2ccccc21)NO
Result: 60.2

Reference source: ChEMBL document CHEMBL4842385
